- experiment-description: Chemical stability after 48 hrs
- Assay type: physicochemical
- condition-label: read-out: Stability
reported-endpoint: remaining at 48 h

// remaining at 48 h value for COC(=O)CC/C=C(\C)[C@@H](O)C/C=C/C=C/C=C/C=C/C=C/C(C)=C/[C@@H](O)[C@@H](C)[C@@H]1C[C@H](O)CCC[C@H](OC)C/C=C\C=C\C[C@H](C)[C@@H](O)[C@H](C)[C@@H](O)[C@H](C)[C@H](O)CC(=O)O1 [ETNANGIEN METHYL ESTER] : < 5%
